target.of.assay: K56 receptor (mouse delta opioid receptor) (Mus musculus, UniProt P32300)
Sequence (P32300 whole entry): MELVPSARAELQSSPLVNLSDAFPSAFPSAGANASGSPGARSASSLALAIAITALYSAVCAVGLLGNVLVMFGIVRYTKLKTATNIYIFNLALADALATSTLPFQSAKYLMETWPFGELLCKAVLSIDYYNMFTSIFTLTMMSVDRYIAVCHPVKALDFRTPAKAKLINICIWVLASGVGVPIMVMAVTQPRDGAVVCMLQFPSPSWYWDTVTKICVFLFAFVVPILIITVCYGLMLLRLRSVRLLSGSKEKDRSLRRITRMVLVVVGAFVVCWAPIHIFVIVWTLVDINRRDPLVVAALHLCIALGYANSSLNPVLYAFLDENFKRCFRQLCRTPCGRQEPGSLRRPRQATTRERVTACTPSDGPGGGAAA
experimental.details: biochemical
assay.setup: PKi Cos K56
assay.readout: Ki

Look up Ki: CCC12CCN(CC3(O)CC3)C(Cc3ccc(O)cc31)C2(C)C (stereo not shown) 5.62 nM
